Test: CellTiter-Glo luminescent readout of SW480 viability loss, NPC library primary (AID 1117343)
Conditions: CellTiter-Glo luminescence; at 20 µM (top of the series) unless noted
The source made the active and inactive calls.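 Rule for the calls: active = compounds that lower viability of the colon cancer cells in the luminescence readout, with no numeric limit stated; inactive = the rest.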
Reply using exactly one outcome from yes (1) = active, no (0) = inactive

Consider the following illustrative entries.
• O=C(OC1C[C@H]2CC[C@@H](C1)[N+]21CCCC1)C(O)(c1ccccc1)c1ccccc1 (stereo partly drawn) = no (0)
• CC(C)(C)NCC(O)COc1cccc2c1CCC(=O)N2 (stereo not drawn) = no (0)

Q: Per the assay record, what outcome was assigned to "COC(=O)[C@@H](N)Cc1ccc(O)c(O)c1" ?
A: yes (1)
